Test system: Canis familiaris
test protocol: Inhibition of apomorphine induced emesis in dogs following p.o. administration.
Type: functional
experimental parameters: Canis lupus familiaris, po
result type: ED50 (mg/kg)

- compound: "CCN1CCCC1CNC(=O)c1cc(NS(=O)(=O)N(C)C)c(C)cc1OC (stereo unspecified)"
  system tested: "Canis familiaris"
  result type: "ED50"
  modifier: "="
  observed: 0.05
- compound: "CCN1CCCC1CNC(=O)c1cc(N(C)S(C)(=O)=O)c(Cl)cc1OC (stereo unspecified)"
  system tested: "Canis familiaris"
  result type: "ED50"
  modifier: "="
  observed: 0.1
- compound: "CCN1CCCC1CNC(=O)c1cc(N(C)S(=O)(=O)N(C)C)c(C)cc1OC (stereo unspecified)"
  system tested: "Canis familiaris"
  result type: "ED50"
  modifier: "="
  observed: 1
- compound: "CCN1CCCC1CNC(=O)c1cc(N(C)S(=O)(=O)N(C)C)c(Cl)cc1OC (stereo unspecified)"
  system tested: "Canis familiaris"
  result type: "ED50"
  modifier: "="
  observed: 0.1
- compound: "CCN1CCCC1CNC(=O)c1cc(NS(C)(=O)=O)c(C)cc1OC (stereo unspecified)"
  system tested: "Canis familiaris"
  result type: "ED50"
  modifier: "="
  observed: 1
- compound: "CCN1CCCC1CNC(=O)c1cc(N(C)S(N)(=O)=O)ccc1OC (stereo unspecified)"
  system tested: "Canis familiaris"
  result type: "ED50"
  modifier: "="
  observed: 1
- compound: "CCN1CCCC1CNC(=O)c1cc(NS(=O)(=O)N(C)C)c(Cl)cc1OC (stereo unspecified)"
  system tested: "Canis familiaris"
  result type: "ED50"
  modifier: "="
  observed: 0.05
- compound: "CCN1CCCC1CNC(=O)c1cc(S(N)(=O)=O)ccc1OC (stereo unspecified) [SULPIRIDE]"
  system tested: "Canis familiaris"
  result type: "ED50"
  modifier: "="
  observed: 0.09
- compound: "CCN1CCCC1CNC(=O)c1cc(NS(=O)(=O)N(C)C)ccc1OC (stereo unspecified)"
  system tested: "Canis familiaris"
  result type: "ED50"
  modifier: "="
  observed: 1
- compound: "CCN1CCCC1CNC(=O)c1cc(NS(N)(=O)=O)c(C)cc1OC (stereo unspecified)"
  system tested: "Canis familiaris"
  result type: "ED50"
  modifier: ">"
  observed: 1
- compound: "CCN1CCCC1CNC(=O)c1cc(N(C)S(C)(=O)=O)c(C)cc1OC (stereo unspecified)"
  system tested: "Canis familiaris"
  result type: "ED50"
  modifier: "="
  observed: 1

====

Test system: Canis familiaris
test protocol: Inhibition of apomorphine induced emesis in dogs following p.o. administration.
Type: functional
experimental parameters: Canis lupus familiaris, po
A collection of compounds and their measured ED50

- compound: "CCN1CCCC1CNC(=O)c1cc(NS(=O)(=O)NC)ccc1OC (stereo not drawn)"
  ED50: "> 1 mg/kg"
- compound: "CCN1CCCC1CNC(=O)c1cc(NS(=O)(=O)NC)c(Cl)cc1OC (stereo not drawn)"
  ED50: "> 1 mg/kg"
- compound: "CCN1CCCC1CNC(=O)c1cc(NS(=O)(=O)NC)c(C)cc1OC (stereo not drawn)"
  ED50: "> 1 mg/kg"
